Can you tell me melting point for the items I'm about to list?

[Q] Endpoint output: melting point of COc1ccc(-c2cc(-c3ccc(C)cc3)nc3nc4[nH]c5ccccc5c(=O)n4c(=O)c23)cc1 [Compound 8b] . Value?
[A] > 300 °C

[Q] Do the same for COc1cc(-c2cc(-c3ccc(Cl)cc3)nc3nc4[nH]c5ccccc5c(=O)n4c(=O)c23)cc(OC)c1OC [Compound 8c] please
[A] < 300 °C

[Q] Do the same for COc1ccc(-c2cc(-c3ccc(C)cc3)nc3nc4[nH][nH]c(=O)n4c(=O)c23)cc1 [Compound 10b] please
[A] 366 to 368 °C

[Q] Do the same for COc1cc(-c2cc(-c3ccc(Cl)cc3)nc3nc4[nH]nc(-c5ccccc5)n4c(=O)c23)cc(OC)c1OC [Compound 12c] please
[A] 313 to 315 °C

[Q] Do the same for Cc1ccc(-c2cc(-c3ccc(Cl)cc3)nc3nc4[nH]nc(-c5ccccc5)n4c(=O)c23)cc1 [Compound 12a] please
[A] 315 to 317 °C

[Q] Do the same for COc1cc(-c2cc(-c3ccc(C)cc3)nc3nc4[nH][nH]c(=O)n4c(=O)c23)cc(OC)c1OC [Compound 10d] please
[A] 391 to 393 °C

[Q] Do the same for COc1ccc(-c2cc(-c3ccc(C)cc3)nc3nc4[nH]nc(-c5ccccc5)n4c(=O)c23)cc1 [Compound 12b] please
[A] 325 to 327 °C

[Q] Do the same for O=c1[nH]c(=S)[nH]c2nc(-c3ccc(Cl)cc3)cc(-c3ccc(Cl)cc3Cl)c12 [Compound 7a] please
[A] 318 to 320 °C

[Q] Do the same for Cc1ccc(-c2cc(-c3ccc(Cl)cc3)nc3nc4[nH][nH]c(=O)n4c(=O)c23)cc1 [Compound 10a] please
[A] 347 to 349 °C

[Q] Do the same for NNc1nc2nc(-c3ccc(Cl)cc3)cc(-c3ccc(Cl)cc3Cl)c2c(=O)[nH]1 [Compound 9a] please
[A] 265 to 267 °C

[Q] Do the same for COc1cc(-c2cc(-c3ccc(C)cc3)nc3nc4[nH]c5ccccc5c(=O)n4c(=O)c23)cc(OC)c1OC [Compound 8d] please
[A] > 300 °C

[Q] Do the same for COc1cc(-c2cc(-c3ccc(Cl)cc3)nc3nc4[nH][nH]c(=O)n4c(=O)c23)cc(OC)c1OC [Compound 10c] please
[A] 367 to 369 °C

[Q] Do the same for COc1cc(-c2cc(-c3ccc(C)cc3)nc3nc4[nH]nc(-c5ccccc5)n4c(=O)c23)cc(OC)c1OC [Compound 12d] please
[A] 322 to 324 °C

---

- Test system: colon cancer (HCT-116)
- procedure-details: MTT antiproliferative assay, HCT-116
- reported-conditions: Homo sapiens, HCT-116, read-out: Growth inhibition (%) HCT-116
Can you tell me inhibition at 100 µM for the items I'm about to list?
Give the number; % is assumed, so skip it.

[Q] Endpoint output: inhibition at 100 µM of NNc1nc2nc(-c3ccc(Cl)cc3)cc(-c3ccc(Cl)cc3Cl)c2c(=O)[nH]1 . Value?
[A] 89

[Q] Do the same for Cc1ccc(-c2cc(-c3ccc(Cl)cc3)nc3nc4[nH]nc(-c5ccccc5)n4c(=O)c23)cc1 [Compound 12a] please
[A] 35

[Q] Do the same for COc1ccc(-c2cc(-c3ccc(C)cc3)nc3nc4[nH]nc(-c5ccccc5)n4c(=O)c23)cc1 [Compound 12b] please
[A] 56

[Q] Do the same for COc1ccc(-c2cc(-c3ccc(C)cc3)nc3nc4[nH][nH]c(=O)n4c(=O)c23)cc1 [Compound 10b] please
[A] 14

[Q] Do the same for Cc1ccc(-c2cc(-c3ccc(Cl)cc3)nc3nc4[nH][nH]c(=O)n4c(=O)c23)cc1 [Compound 10a] please
[A] 21

[Q] Do the same for COc1cc(-c2cc(-c3ccc(C)cc3)nc3nc4[nH]nc(-c5ccccc5)n4c(=O)c23)cc(OC)c1OC [Compound 12d] please
[A] 5

[Q] Do the same for COc1cc(-c2cc(-c3ccc(C)cc3)nc3nc4[nH][nH]c(=O)n4c(=O)c23)cc(OC)c1OC [Compound 10d] please
[A] 5

[Q] Do the same for COc1cc(-c2cc(-c3ccc(Cl)cc3)nc3nc4[nH][nH]c(=O)n4c(=O)c23)cc(OC)c1OC [Compound 10c] please
[A] 23

[Q] Do the same for COc1cc(-c2cc(-c3ccc(Cl)cc3)nc3nc4[nH]c5ccccc5c(=O)n4c(=O)c23)cc(OC)c1OC please
[A] 9
